target: Acetylcholine receptor subunit alpha (Mus musculus); assay: blockade of mouse muscle nicotinic receptor currents – cell-based, Mus musculus, Xenopus oocytes (AID 743368); conditions: two-electrode voltage clamp, ACh-evoked current
Quantity Kind: IC50

Can you give me IC50 for all of these, one by one?
1. COc1cc(CCN)c2c(c1OC)SSSSS2
2. COn1c(Br)c2c3c(cccc31)[C@H]1C[C@@H](C)CN(C)[C@@H]1C2
3. CC/C=C/[C@@H]1CC[C@]2(C[C@H]3CC[C@H]4[C@@H](C(=O)OC(CC)CCCCCCCCCCCCC[C@@H]5O[C@](O)(CCN)[C@H](O)N(CCCN)C5=O)[C@@]5(CCC[C@H](C)O5)NC(=[N+]34)N2)O1 (stereo partly drawn)

Data returned:
1. 8.7 µM
2. 3.7 µM
3. 4.1 µM
